Test system: KIT-autoinhibited
Conditions: concentration: 1 μM,replicates: in singlicate; n = 1;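 further: KINOMEscan kinase panel screen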
PROPERTY_LABEL: %Inh (%)

                                    compound          tested_on  endpoint_value
 0  CCn1c(-c2nonc2N)nc2cncc(CNC3CCNCC3)c21.Cl  KIT-autoinhibited               0
 1  Cc1ccc(CC(=O)N2CCc3cc(-c4cn(C)c5ncnc(N)c45)ccc32)cc1  KIT-autoinhibited               0
 2  C[C@@H](Oc1cc(-n2cnc3cc(-c4cnn(C)c4)ccc32)sc1C(N)=O)c1ccccc1Cl  KIT-autoinhibited               0
 3  Cn1ccc2ncnc(Oc3ccc(NC(=O)Nc4cc(C(C)(C)C)on4)c(Cl)c3)c21  KIT-autoinhibited              30
 4  OCCn1cc(-c2cnc3nnn(Cc4ccc5ncccc5c4)c3n2)cn1  KIT-autoinhibited               0
 5  Cc1ccc2c(-c3ccnc(Nc4ccc(C(F)(F)F)cc4)n3)cnn2n1  KIT-autoinhibited              34
 6  Cc1ccc(Nc2ccnc(Nc3ccc4c(c3)CS(=O)(=O)C4)n2)cc1O.Cl  KIT-autoinhibited              41
 7  O=C(NCC1CC1)c1ccc(-c2cc(C(=O)NC3CC3)ccc2F)cc1  KIT-autoinhibited               0
 8  Cc1cccc2c(-c3ccncc3)c(-c3ccc(F)cc3)nn12.Cl  KIT-autoinhibited               0
 9  COc1cccc(CNC(=O)NC2CCN(c3ccnc(Nc4cc(OC)c(OC)c(OC)c4)n3)C2)c1 (stereo not shown)  KIT-autoinhibited               0
10  CS(=O)(=O)c1cccc(CNc2nc(Nc3ccc4c(c3)[C@@H]3C[C@@H]4CNC3=O)ncc2C(F)(F)F)c1  KIT-autoinhibited              39
11  C[C@@H](Oc1cc(-n2cnc3ccc(-c4ccncc4)cc32)sc1C(N)=O)c1ccccc1Cl  KIT-autoinhibited               6
12  Cn1ccc2ncnc(Oc3ccc(NC(=O)Nc4cncc(C(F)(F)F)c4)c(Cl)c3)c21  KIT-autoinhibited              17
13  CN(c1cccc(CNc2nc(Nc3ccc4c(c3)CC(=O)N4)ncc2C(F)(F)F)c1)S(C)(=O)=O  KIT-autoinhibited              31
14  CN1CCN(CCCNc2nccc(-c3c(-c4ccc(F)cc4)nn4cc(C(N)=O)ccc34)n2)CC1  KIT-autoinhibited               2
15  CN1CCN(CCNc2nc3cc(Oc4ccc(NC(=O)Nc5cc(C(F)(F)F)ccc5F)cc4)ccc3[nH]2)CC1.Cl.Cl  KIT-autoinhibited               4
16  COc1cccc(OC)c1C(=O)Nc1cccc(-c2nn3ccccc3c2-c2ccnc(Nc3cccc(F)c3)n2)c1  KIT-autoinhibited              11
17  COc1cccc(C2=C(Nc3cccc(Cl)c3)C(=O)NC2=O)c1  KIT-autoinhibited               0
18  C[C@@H]1CNc2c(sc3ccc4nc(-c5ccncc5)ccc4c23)C(=O)N1  KIT-autoinhibited               7

###

Test system: MARK2
Conditions: concentration: 1 μM,replicates: in singlicate; n = 1
PROPERTY_LABEL: %Inh (%)

>>> print(df.to_string())
                                 cpd_smiles  tested_on  unit_tag  endpoint_value
0  COc1cc2c(Nc3ccc(NC(=O)c4ccccc4)cc3)ncnc2cc1OCCCN1CCOCC1      MARK2         %               0
1  CCOC(=O)N1CCC(n2cnc(-c3ccc(F)cc3)c2-c2ccnc(N)n2)CC1      MARK2         %              17
2  Cn1ccc2ncnc(Oc3ccc(NC(=O)Nc4ccnc(C(F)(F)F)c4)c(Cl)c3)c21      MARK2         %               0
3  Cc1ccc(Nc2ccnc(Nc3ccc4c(c3)CS(=O)(=O)C4)n2)cc1O.Cl      MARK2         %              17
